Exercise: state measured hOAT3 uptake ratio, fold higher than mock transfected controls for each of the molecules provided.
biological target: UniProtKB Q8TCC7; assay: hOAT3 substrate; details: 1 μM PFAS screen

Query: Under UniProtKB Q8TCC7: hOAT3 uptake ratio, fold higher than mock transfected controls value of "O=C(O)C(F)(F)C(F)(F)C(F)(F)C(F)(F)F" ?
Reply: 2.5–12 fold

Query: Could you share what hOAT3 uptake ratio, fold higher than mock transfected controls was measured for O=S(=O)(O)CCC(F)(F)C(F)(F)C(F)(F)C(F)(F)C(F)(F)C(F)(F)F [6:2FTS, 6:2 fluorotelomer sulfonate] , tested on UniProtKB Q8TCC7?
Reply: 2.5–12 fold

Query: Checklist item: hOAT3 uptake ratio, fold higher than mock transfected controls tested on UniProtKB Q8TCC7, entry "O=C(O)C(F)(F)C(F)(F)C(F)(F)C(F)(F)C(F)(F)C(F)(F)C(F)(F)F" , value?
Reply: 2.5–12 fold

Query: Please state recorded hOAT3 uptake ratio, fold higher than mock transfected controls (tested on UniProtKB Q8TCC7) of "O=S(=O)(O)C(F)(F)C(F)(F)C(F)(F)C(F)(F)F"
Reply: 2.5–12 fold

Query: API: value(readout=hOAT3 uptake ratio, fold higher than mock transfected controls, system=UniProtKB Q8TCC7) for record "O=C(O)C(F)(F)C(F)(F)C(F)(F)C(F)(F)C(F)(F)F"
Reply: 2.5–12 fold

Query: Hello, I am looking for reported hOAT3 uptake ratio, fold higher than mock transfected controls with UniProtKB Q8TCC7 for "O=C(O)C(F)(F)C(F)(F)C(F)(F)C(F)(F)C(F)(F)C(F)(F)C(F)(F)C(F)(F)F" . Could you help?
Reply: 2.5–12 fold

Query: Test system UniProtKB Q8TCC7; read-out hOAT3 uptake ratio, fold higher than mock transfected controls; what value for "O=C(O)C(F)(F)C(F)(F)C(F)(F)C(F)(F)C(F)(F)C(F)(F)F" ?
Reply: 2.5–12 fold

Query: Provide the documented hOAT3 uptake ratio, fold higher than mock transfected controls with UniProtKB Q8TCC7 as the system for "O=S(=O)(O)C(F)(F)C(F)(F)C(F)(F)C(F)(F)C(F)(F)C(F)(F)F"
Reply: 2.5–12 fold

* * *

For each entry below, report its IC50 value.
target: human OAT3 (Homo sapiens, UniProt Q8TCC7); assay: OAT3 inhibition assay; details: read-out: IC50 hOAT3 inhibition; probe [3H]-ES 0.1 μM; 30 min pre-incubation
Sequence (Q8TCC7 whole entry): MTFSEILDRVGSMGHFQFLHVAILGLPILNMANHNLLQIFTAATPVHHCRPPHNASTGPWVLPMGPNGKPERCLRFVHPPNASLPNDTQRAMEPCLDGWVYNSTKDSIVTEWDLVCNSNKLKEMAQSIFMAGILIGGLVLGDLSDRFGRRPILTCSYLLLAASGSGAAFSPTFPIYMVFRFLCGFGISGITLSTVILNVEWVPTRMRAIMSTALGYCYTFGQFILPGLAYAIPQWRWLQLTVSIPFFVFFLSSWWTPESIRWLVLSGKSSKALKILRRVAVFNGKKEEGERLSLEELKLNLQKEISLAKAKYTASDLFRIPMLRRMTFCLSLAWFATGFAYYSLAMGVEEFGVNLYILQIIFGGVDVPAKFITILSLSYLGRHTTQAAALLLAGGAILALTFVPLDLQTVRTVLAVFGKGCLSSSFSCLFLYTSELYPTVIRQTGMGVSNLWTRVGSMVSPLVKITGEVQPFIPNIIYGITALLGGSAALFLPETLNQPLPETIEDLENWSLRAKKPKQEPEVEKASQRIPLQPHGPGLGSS

Query: Any idea what its IC50 is? The molecule is O=S(=O)(O)CCC(F)(F)C(F)(F)C(F)(F)C(F)(F)C(F)(F)C(F)(F)F [6:2FTS, 6:2 fluorotelomer sulfonate]
Reply: 11.3 µM

Query: May I ask what IC50 has been recorded for O=C(O)C(F)(F)C(F)(F)C(F)(F)C(F)(F)C(F)(F)C(F)(F)C(F)(F)C(F)(F)F [PFNA, perfluorononanoic acid] ?
Reply: 9.8 µM

* * *

test system: MDCKII-LE cell monolayers; assay: Apparent permeability; conditions: donor pH 7.4, receiver pH 7.4; 2 μM PFAS; 90 min; 0.4% BSA in receiver
Please assign label 0 whenever Ph 7.4 A-B Papp is at or above 4 ×10⁻⁶ cm/s, and label 1 whenever it is below.

Query: Is it true that Ph 7.4 A-B Papp reported for O=C(O)C(F)(F)C(F)(F)C(F)(F)C(F)(F)C(F)(F)C(F)(F)C(F)(F)F [PFOA, perfluorooctanoic acid] is less than 4 ×10⁻⁶ cm/s?
Reply: label 1

Query: Does the reported Ph 7.4 A-B Papp of O=C(O)C(F)(F)C(F)(F)C(F)(F)C(F)(F)C(F)(F)F [PFHxA, perfluorohexanoic acid] stay below 4 ×10⁻⁶ cm/s?
Reply: label 1

Query: Strictly below 4 ×10⁻⁶ cm/s in Ph 7.4 A-B Papp? O=S(=O)(O)CCC(F)(F)C(F)(F)C(F)(F)C(F)(F)C(F)(F)C(F)(F)F [6:2FTS, 6:2 fluorotelomer sulfonate]
Reply: label 1

Query: Could you please tell me whether Ph 7.4 A-B Papp recorded for O=C(O)C(F)(F)C(F)(F)C(F)(F)C(F)(F)C(F)(F)C(F)(F)C(F)(F)C(F)(F)C(F)(F)C(F)(F)F [PFUDA, perfluoroundecanoic acid] is less than 4 ×10⁻⁶ cm/s?
Reply: label 0

Query: Dear reviewer, please state whether O=C(O)C(F)(F)C(F)(F)C(F)(F)C(F)(F)C(F)(F)C(F)(F)C(F)(F)C(F)(F)F [PFNA, perfluorononanoic acid] has Ph 7.4 A-B Papp strictly beneath 4 ×10⁻⁶ cm/s.
Reply: label 1

Query: Hello, is Ph 7.4 A-B Papp of the following molecule strictly smaller than 4 ×10⁻⁶ cm/s? O=S(=O)(O)C(F)(F)C(F)(F)C(F)(F)C(F)(F)F [PFBS, Perfluorobutane sulfonic acid]
Reply: label 1

Query: Please indicate whether the reported Ph 7.4 A-B Papp of O=C(O)C(F)(F)C(F)(F)C(F)(F)C(F)(F)F [PFPA, perfluoropentanoic acid] is strictly below 4 ×10⁻⁶ cm/s.
Reply: label 1

Query: Answer whether the molecule O=C(O)C(F)(F)C(F)(F)C(F)(F)C(F)(F)C(F)(F)C(F)(F)C(F)(F)C(F)(F)C(F)(F)F [PFDA, perfluorodecanoic acid] has Ph 7.4 A-B Papp strictly less than 4 ×10⁻⁶ cm/s
Reply: label 0

Query: Confirm or reject: Ph 7.4 A-B Papp of O=C(O)C(F)(F)C(F)(F)C(F)(F)F [PFBA, Perfluorobutanoic acid] lies strictly below 4 ×10⁻⁶ cm/s
Reply: label 1

* * *

target: human OAT3 (Homo sapiens, UniProt Q8TCC7); assay: OAT3 inhibition assay
MEASUREMENT_LABEL: IC50 (µM)
Write the answer as a number in µM, unit excluded.

Query: GET /values?readout=IC50&item= O=C(O)C(F)(F)C(F)(F)C(F)(F)C(F)(F)C(F)(F)C(F)(F)C(F)(F)F [PFOA, perfluorooctanoic acid]
Reply: 8.9

Query: What IC50 value was documented for this molecule, O=C(O)C(F)(F)C(F)(F)C(F)(F)C(F)(F)C(F)(F)C(F)(F)F [PFHpA, perfluoroheptanoic acid] ?
Reply: 10.2

Query: If you can, please state the reported IC50 value of O=S(=O)(O)C(F)(F)C(F)(F)C(F)(F)C(F)(F)C(F)(F)C(F)(F)F [PFHxS, perfluorohexane sulfonic acid] .
Reply: 10.3

* * *

biological target: human OAT4 (Homo sapiens); assay: hOAT4 substrate; assay type: in vitro ADME; conditions: probenecid 1 mM
Sequence (Q9NSA0 whole entry): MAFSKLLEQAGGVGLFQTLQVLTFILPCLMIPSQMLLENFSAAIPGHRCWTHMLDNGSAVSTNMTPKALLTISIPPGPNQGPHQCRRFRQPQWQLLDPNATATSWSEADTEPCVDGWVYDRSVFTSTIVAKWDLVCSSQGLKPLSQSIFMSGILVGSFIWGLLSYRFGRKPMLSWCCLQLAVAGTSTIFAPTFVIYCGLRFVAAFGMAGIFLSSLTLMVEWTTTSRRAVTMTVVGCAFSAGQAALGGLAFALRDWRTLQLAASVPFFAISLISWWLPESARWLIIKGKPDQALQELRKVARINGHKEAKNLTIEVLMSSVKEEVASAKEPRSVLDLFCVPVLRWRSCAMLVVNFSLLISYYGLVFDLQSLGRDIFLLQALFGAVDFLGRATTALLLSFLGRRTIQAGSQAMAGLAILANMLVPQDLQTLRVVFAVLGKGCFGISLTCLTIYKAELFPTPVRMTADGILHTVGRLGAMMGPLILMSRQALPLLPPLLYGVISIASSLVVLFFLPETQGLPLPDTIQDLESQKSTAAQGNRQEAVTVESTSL
MEASUREMENT_LABEL: Effect of probenecid co-treatment on hOAT4-mediated uptake

The following molecules have reported results that may help.
[
  {
    "MOLECULE": "O=C(O)C(F)(F)C(F)(F)C(F)(F)C(F)(F)C(F)(F)C(F)(F)C(F)(F)C(F)(F)F [PFNA, perfluorononanoic acid]",
    "EXPERIMENTAL_VALUE": "effectively inhibited"
  },
  {
    "MOLECULE": "O=C(O)C(F)(F)C(F)(F)C(F)(F)C(F)(F)C(F)(F)C(F)(F)F [PFHpA, perfluoroheptanoic acid]",
    "EXPERIMENTAL_VALUE": "effectively inhibited"
  },
  {
    "MOLECULE": "O=C(O)C(F)(F)C(F)(F)C(F)(F)C(F)(F)C(F)(F)F [PFHxA, perfluorohexanoic acid]",
    "EXPERIMENTAL_VALUE": "effectively inhibited"
  },
  {
    "MOLECULE": "O=C(O)C(F)(F)C(F)(F)C(F)(F)C(F)(F)F [PFPA, perfluoropentanoic acid]",
    "EXPERIMENTAL_VALUE": "effectively inhibited"
  },
  {
    "MOLECULE": "O=C(O)C(F)(F)C(F)(F)C(F)(F)C(F)(F)C(F)(F)C(F)(F)C(F)(F)F [PFOA, perfluorooctanoic acid]",
    "EXPERIMENTAL_VALUE": "effectively inhibited"
  }
]

Please find the next molecule below.
Query: Please report the recorded Effect of probenecid co-treatment on hOAT4-mediated uptake for O=S(=O)(O)C(F)(F)C(F)(F)C(F)(F)C(F)(F)F [PFBS, Perfluorobutane sulfonic acid] .
Reply: effectively inhibited

* * *

assay: in vitro; conditions: dog, MDCK, pH 7.4
MEASUREMENT_LABEL: Papp A→B at 90 min, 2 μM (×10⁻⁶ cm/s)
Only the number, expressed in ×10⁻⁶ cm/s, is required.

Query: Quick one: Papp A→B at 90 min, 2 μM for NS(=O)(=O)C(F)(F)C(F)(F)C(F)(F)C(F)(F)C(F)(F)C(F)(F)C(F)(F)C(F)(F)F [PFOSA, perfluorooctanesulfonamide] ?
Reply: 41.4

* * *

Biological target: UniProtKB O15244
Sequence (O15244 1-555): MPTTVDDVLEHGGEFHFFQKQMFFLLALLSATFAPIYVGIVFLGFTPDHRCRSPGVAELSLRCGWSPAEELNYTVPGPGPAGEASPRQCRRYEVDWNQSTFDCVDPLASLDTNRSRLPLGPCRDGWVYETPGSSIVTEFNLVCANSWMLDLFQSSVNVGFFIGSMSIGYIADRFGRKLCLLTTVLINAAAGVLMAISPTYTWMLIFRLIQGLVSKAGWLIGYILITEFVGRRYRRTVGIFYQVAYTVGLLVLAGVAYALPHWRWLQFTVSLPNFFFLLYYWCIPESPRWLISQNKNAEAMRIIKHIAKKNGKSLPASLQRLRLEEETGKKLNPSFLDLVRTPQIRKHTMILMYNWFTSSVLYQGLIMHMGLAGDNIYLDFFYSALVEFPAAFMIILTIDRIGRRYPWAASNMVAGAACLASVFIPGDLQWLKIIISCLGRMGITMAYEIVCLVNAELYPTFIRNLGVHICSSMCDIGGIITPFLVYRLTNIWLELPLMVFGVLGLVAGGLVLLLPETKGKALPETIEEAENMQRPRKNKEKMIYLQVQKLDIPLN
Experiment: OCT2 inhibition assay
MEASUREMENT_LABEL: pIC50
For clarity, pIC50 is expressed as the negative log10 of concentration in mol/L.

Query: Returns the measured pIC50 for the input molecule. Input: NS(=O)(=O)C(F)(F)C(F)(F)C(F)(F)C(F)(F)C(F)(F)C(F)(F)C(F)(F)C(F)(F)F [PFOSA, perfluorooctanesulfonamide]
Reply: 3.61

Reference source for all entries: paper PMC11774580
